System: SW-620 colon
experiment: NCI-60 one-dose screen, 48 h (100 = growth as untreated, 0 = no growth, -100 = all killed)
stated conditions: 10 µM unless noted
About 83,000 compounds went through this panel and 20% of them were active in at least one assay; those are over-represented in the sample as a whole.
Readings of growth for the listed compounds
measurement type: growth (%)

1) CCN(CC)CCCC(Cc1ccccc1)Nc1c2ccc(Cl)cc2nc2ccc(OC)cc12 (centres undefined)
13.2
2) OC1(c2ccccc2)c2ccccc2N(c2ccccc2)c2ccc(Cl)cc21 (centres undefined)
-85.7
3) O=C1C=C(SCCO)C(=O)c2ccccc21
-52.6
4) Cc1ccc2c(c1)nc(C)n2-c1ncnc2c1CC(C)c1cc(O)ccc1N2C (centres undefined)
21.5
5) CCN(CC)CCn1c2ccc(OC)cc2c2sc3cc(O)ccc3c(=O)c21
13.3
6) COC(=O)/C(CCC=C(C)C)=C1\[C@@H](OC(C)=O)C[C@@]2(C)[C@H]1C/C(=N/O)[C@H]1[C@@]3(C)CC/C(=N\O)[C@@H](C)[C@@H]3CC[C@@]12C
106
7) COc1cc2c3c(c4c5ccccc5[nH]c4c2c(OC)c1OC)C(=O)N(CCN1CCCCC1)C3=O
-66.4
8) O=C(NN1C(=O)CSC1c1cccc([N+](=O)[O-])c1)c1ccc(NC(=O)c2ccccn2)cc1 (centres undefined)
104
9) Nc1ccc(Br)cc1C(F)(F)F
111

----------
System: A498 renal
experiment: NCI-60 one-dose screen, 48 h (100 = growth as untreated, 0 = no growth, -100 = all killed)
stated conditions: 10 µM unless noted
Method: Growth inhibition of the A498 human tumor cell line is measured as a screen for anti-cancer activity. Cells are grown in 96 well plates and exposed to the test compound for 48 hours. Compounds are tested at a single concentration, which is 10^-5 M for most compounds. The reported endpoint is percent growth (GI% or GIPRCNT), where numbers from 0 - 100% represent growth inhibition, and numbers from -100% - 0 represent cell death. For example, a value of 40 represents 60% growth inhibition. […]
Compounds without any hit were thinned out: in the full panel of roughly 83,000, 20% have a hit.
Entries and their growth values follow.
measurement type: growth (%)

1. CS(=O)(=O)Nc1cc(-c2ccc3ncnc(Nc4ccc(F)c(Cl)c4)c3c2)ccc1Cl
6.7
2. COc1ccc(/C=C2\c3cc(OC)c(OC)c(OC)c3CC[C@@H]2O)cc1F
8.33
3. CCN1CCN(CCNc2nccc(-c3c(-c4ccc(F)c(O)c4)nc4occn34)n2)S1(=O)=O
49.1
4. CN(C)CCCNC(=O)c1cncnc1Nc1ccc2c(ccn2Cc2cccc(F)c2)c1
32.7

----------
The entries below come with measured growth values attached.
Tested on: NCI-H226 lung
experiment: NCI-60 one-dose screen, 48 h (100 = growth as untreated, 0 = no growth, -100 = all killed)
stated conditions: 10 µM unless noted
The panel holds about 83,000 compounds, 20% with a hit somewhere; the sample as a whole holds those more often.
measurement type: growth (%)

1) Cc1nc(N/N=C/c2cn(-c3ccccc3)nc2-c2cc3ccccc3oc2=O)sc1N=Nc1ccccc1
95.4
2) Cn1cc(-c2nonc2-c2c[nH]c3ccccc23)c2cc(Br)ccc21
75.5
3) Cc1sc2nc(NCCN)[nH]c(=O)c2c1C
84.8
4) Cc1ccc(NC(=O)c2sc3nc(C)c(C(O)c4ccccc4)cc3c2N)cc1 (stereo unspecified)
57.4
5) O=C(/C=C/c1ccco1)Nc1ncc(Cc2cc(Cl)ccc2Cl)s1
39.4
6) Brc1ccc(Nc2nc(Nc3cnc4ccccc4c3)c3[nH]cnc3n2)cc1
64.1
7) CCOC(=O)C1=C(c2ccccc2)N=C2N(c3ccccc3)N=C(C(C)=O)N2C1c1ccc(F)cc1 (stereo unspecified)
97.7
8) O=C(/C=C/c1cn(-c2ccccc2)nc1-c1ccccc1)CCC(=O)NO
93.9
9) C=C(C)[C@@H]1CC[C@]2(C(=O)Nc3ccccn3)CC[C@]3(C)[C@H](CC[C@@H]4[C@@]5(C)CCCNC(C)(C)[C@@H]5CC[C@]43C)[C@@H]12
43.3
10) COc1cccc(-c2cn3nc(-c4cn(C)c5ccccc45)sc3n2)c1
89.6
11) C=CC(=O)Nc1cccc(Oc2nccc(Nc3nnc(-c4ccc(Br)cc4)s3)n2)c1
105

----------
growth values, listed per item
Tested on: SN12C renal
experiment: NCI-60 one-dose screen, 48 h (100 = growth as untreated, 0 = no growth, -100 = all killed)
stated conditions: 10 µM unless noted
About 83,000 compounds went through this panel and 20% of them were active in at least one assay; those are over-represented in the sample as a whole. The source made the active and inactive calls. Rule for the calls: active = growth percent below 10; inactive = the rest.
measurement type: growth

1. O=c1oc2c(cc1-c1ccccc1)c[n+]([O-])c1ccccc21
97.2% (inactive)
2. O=CCCCOCc1ccccc1
98.8% (inactive)
3. CCN(CC)CCOc1ccc2c(-c3ccccc3)c(-c3ccc(OC)cc3)c(=O)oc2c1
68.5% (inactive)
4. CC(=O)Nc1sc2c(c1-c1nc3ccccc3s1)CNC2
27.9% (inactive)
5. O=C(NN1C(=O)CSC1c1cccc([N+](=O)[O-])c1)c1ccc(NC(=O)c2ccccn2)cc1 (stereo not given)
96.9% (inactive)
6. CCOC(=O)C/C(=N\Nc1cc(=O)[nH]c2ccc(C)cc12)C(=O)OCC
101% (inactive)
7. COC(=O)c1nc(-c2ccccc2)oc1S(=O)(=O)N1CCCC(C)C1 (stereo not given)
84.4% (inactive)
8. COc1ccccc1S(=O)(=O)Nc1ccc2c3c(cc(CCC(=O)NCCCCNc4cccc5c4C(=O)N(C4CCC(=O)NC4=O)C5=O)cc13)C(=O)N2C (stereo not given)
7.95% (active)
9. CCCn1c(=S)sc2c(NNC(C)=O)nc(C)nc21
101% (inactive)
10. CN(C)CCn1c(=O)c2ccccc2n2nc3ccccc3c12
69.9% (inactive)
11. Cc1nc(N/N=C/c2cn(-c3ccccc3)nc2-c2cc3ccccc3oc2=O)sc1N=Nc1ccccc1
97.6% (inactive)
12. C/C(=N\Nc1ccccc1)c1ccc(NC2=CC(=O)c3ccccc3C2=O)cc1
63.5% (inactive)
13. Cn1cc(-c2nc3c(F)cc4[nH]ncc4c3c3c2CCCC3)c(C(F)(F)F)n1
49.4% (inactive)
14. Cc1ccc(C2CC(c3cccc(Nc4ccncc4)c3)=Nc3c(N)nc(N)nc3N2)cc1 (stereo not given)
61.2% (inactive)
15. CCOC(=O)C1=C(CC(O)c2ccc(OC)cc2OC)NC(=O)NC1c1ccccc1 (stereo not given)
105% (inactive)
16. O=c1cc(CNc2cc(F)cc(F)c2)c2ccc(I)cc2[nH]1
51.7% (inactive)
17. CN(C)CCCC1(c2ccc(F)cc2)OCc2cc(-c3csc4ccccc34)ccc21 (stereo not given)
39.7% (inactive)
18. COC(=O)c1sccc1-c1cc(O)c(C(=O)Nc2ccccc2)s1
105% (inactive)
19. C=C1C(=O)O[C@H]2[C@H]1CC/C(COC(=O)C(=O)c1c[nH]c3ccc(Cl)cc13)=C\CC[C@@]1(C)O[C@@H]21
-86.8% (active)
20. COc1cc(C=Nc2oc(-c3ccccc3)c(-c3ccccc3)c2C#N)cc(CN2CCCC2)c1O
91.8% (inactive)
21. O=CN1N=C(c2cccc(Nc3ccnc4cc(Cl)ccc34)c2)CC1c1ccc(Cl)cc1 (stereo not given)
34.1% (inactive)
22. O=C(OCc1ccc2c(Cl)cc(Cl)c(O)c2n1)N1CCN(C(=O)c2cc3ccccc3[nH]2)CC1
28.1% (inactive)
23. O=C(Nc1ncc(Cc2ccccc2)s1)c1sc2ccccc2c1Cl
39.5% (inactive)
24. CC1(C)N=C(N)N=C(N)N1c1ccc(S(=O)(=O)Nc2nccs2)cc1
95.2% (inactive)
25. COc1cc2ncnc(Nc3ccc(S(=O)(=O)Nc4nccs4)cc3)c2cc1OCCCN1CCCC1
99.9% (inactive)
26. COc1ccc(CN2C(=O)OC(C)(COC(C)=O)C2=O)cc1 (stereo not given)
99.8% (inactive)
27. O=C1CCC(C(=O)N/N=C/c2cc(F)ccc2F)N1 (stereo not given)
96.6% (inactive)
28. CCNC(=O)N1CCc2c(Br)c3c(c(OC)c2C1Cc1ccc(OC)cc1)OCO3 (stereo not given)
49.9% (inactive)
29. COc1ccc(-c2cn(Cc3cc4ccccc4s3)nn2)cc1OCCN1CCCCC1
81.6% (inactive)
30. c1cc(OCCN2CCCCC2)ccc1CNc1ccc2nc(CCC3CCCCC3)[nH]c2c1
64.4% (inactive)

----------
Tested on: DU-145 prostate
experiment: NCI-60 one-dose screen, 48 h (100 = growth as untreated, 0 = no growth, -100 = all killed)
stated conditions: 10 µM unless noted
This is part of a sample that, as a whole, favours compounds with a hit. Of some 83,000 tested, about 20% had one in any assay.
measurement type: growth (%)

1) CNCC[C@H](Oc1cccc2ccccc12)c1cccs1
115
2) O=C1/C(=C/c2ccccn2)SC(=S)N1N1CCOCC1
104
3) CCOC(=O)CNC1=C(Cl)C(=O)N(Cc2ccc(Cl)cc2)C1=O
113
4) CCCOC(=O)Nc1nc2ccc(SCC)cc2s1
94.6
